# tested-system: Melatonin receptor type 1B (Homo sapiens)
# Sequence (P49286 whole entry): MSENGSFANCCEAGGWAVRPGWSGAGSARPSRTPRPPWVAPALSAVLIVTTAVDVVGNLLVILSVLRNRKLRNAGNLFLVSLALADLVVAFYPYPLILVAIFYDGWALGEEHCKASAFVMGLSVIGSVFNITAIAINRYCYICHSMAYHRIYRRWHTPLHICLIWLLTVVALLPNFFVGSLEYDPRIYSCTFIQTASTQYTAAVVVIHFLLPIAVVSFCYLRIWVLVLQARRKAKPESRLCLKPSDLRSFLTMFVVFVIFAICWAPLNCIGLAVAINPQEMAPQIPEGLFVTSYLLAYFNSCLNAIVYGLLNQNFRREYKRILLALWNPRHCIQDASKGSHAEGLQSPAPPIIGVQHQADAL
# protocol-details: Displacement of 2-[125I]iodomelatonin from human recombinant MT2 receptor expressed in NIH3T3 cells
observation-type: log10 of Ki (log10 of the value in nM)
Record value = log10 of Ki given in nM.

Below are worked cases with known answers.
{"compound": "CCC(=O)NCC1(c2cn(C)c3ccc(OC)cc23)CCC1", "observation-type": "log10 of Ki", "readout-number": 0.64}
{"compound": "Cn1cc(C2(CNC(=O)C3CC3)CCC2)c2ccccc21", "observation-type": "log10 of Ki", "readout-number": 3.16}
{"compound": "CCCC(=O)NCC1(c2cn(C)c3ccc(OC)cc23)CCC1", "observation-type": "log10 of Ki", "readout-number": -0.07}

Form: item CCC(=O)NCC1(c2c[nH]c3ccc(OC)cc23)CCC1 ; test system Melatonin receptor type 1B (Homo sapiens); log10 of Ki: 1.51

Form: item CCCC(=O)NCC(C)c1cn(C)c2ccc(OC)cc12 (configuration not stated) ; test system Melatonin receptor type 1B (Homo sapiens); log10 of Ki: -0.33

Form: item CCCC(=O)NCC1(c2cn(C)c3ccc(OC)cc23)CCCC1 ; test system Melatonin receptor type 1B (Homo sapiens); log10 of Ki: 1.93

Form: item COc1ccc2c(c1)c(C1(CNC(=O)C3CC3)CCCC1)cn2C ; test system Melatonin receptor type 1B (Homo sapiens); log10 of Ki: 2.41

Form: item CCC(=O)NCC(C)c1cn(C)c2ccc(OC)cc12 (configuration not stated) ; test system Melatonin receptor type 1B (Homo sapiens); log10 of Ki: 0.01

Form: item COc1ccc2[nH]cc(C3(CNC(=O)C4CCC4)CCC3)c2c1 ; test system Melatonin receptor type 1B (Homo sapiens); log10 of Ki: 1.79

Form: item CCC(=O)NCC1(c2cn(C)c3ccc(OC)cc23)CC1 ; test system Melatonin receptor type 1B (Homo sapiens); log10 of Ki: 1.59

Form: item CCC(=O)NCC1(c2cn(C)c3ccccc23)CCC1 ; test system Melatonin receptor type 1B (Homo sapiens); log10 of Ki: 3.02

---

# pKi listing for each entry below
# tested-system: Melatonin receptor type 1A (Homo sapiens, UniProt P48039)
# Sequence (P48039 whole entry): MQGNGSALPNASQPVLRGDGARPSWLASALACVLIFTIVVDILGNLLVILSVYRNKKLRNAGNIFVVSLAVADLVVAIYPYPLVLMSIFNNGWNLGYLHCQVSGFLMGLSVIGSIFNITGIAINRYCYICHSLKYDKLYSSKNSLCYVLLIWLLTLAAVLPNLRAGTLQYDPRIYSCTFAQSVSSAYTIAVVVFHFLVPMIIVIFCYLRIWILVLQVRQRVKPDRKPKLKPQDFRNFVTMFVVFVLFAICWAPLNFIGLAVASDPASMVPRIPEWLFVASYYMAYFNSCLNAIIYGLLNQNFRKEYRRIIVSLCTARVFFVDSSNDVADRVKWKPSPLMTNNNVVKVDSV
# protocol-details: Displacement of 2-[125I]iodomelatonin from human recombinant MT1 receptor expressed in NIH3T3 cells
Just so you know, pKi here is -log10 of the concentration in molar units; reply with that number alone.

{"compound": "CCCC(=O)NCC(C)(C)c1cn(C)c2ccc(OC)cc12", "tested-system": "Melatonin receptor type 1A (Homo sapiens, UniProt P48039)", "readout-number": 8.07}
{"compound": "COc1ccc2c(c1)c(C1(CNC(C)=O)CC1)cn2C", "tested-system": "Melatonin receptor type 1A (Homo sapiens, UniProt P48039)", "readout-number": 6.75}
{"compound": "CCCC(=O)NCC1(c2cn(C)c3ccc(OC)cc23)CCC1", "tested-system": "Melatonin receptor type 1A (Homo sapiens, UniProt P48039)", "readout-number": 7.97}
{"compound": "CCC(=O)NCC1(c2cn(C)c3ccc(OC)cc23)CC1", "tested-system": "Melatonin receptor type 1A (Homo sapiens, UniProt P48039)", "readout-number": 7.07}
{"compound": "CCCC(=O)NCC1(c2cn(C)c3ccccc23)CCC1", "tested-system": "Melatonin receptor type 1A (Homo sapiens, UniProt P48039)", "readout-number": 6.14}

# pKi (compound: CCCC(=O)NCC1(c2cn(C)c3ccc(OC)cc23)CC1 ) is 6.67

# pKi (compound: CCC(=O)NCC1(c2c[nH]c3ccc(OC)cc23)CCC1 ) is 7.18

# pKi (compound: COc1ccc2c(c1)c(C(C)(C)CNC(=O)C1CCC1)cn2C ) is 6.77

# pKi (compound: COc1ccc2[nH]cc(C3(CNC(=O)C4CC4)CCC3)c2c1 ) is 7.24

# pKi (compound: CCCC(=O)NCC(C)c1cn(C)c2ccc(OC)cc12 (stereo unspecified) ) is 8.37

# pKi (compound: COc1ccc2c(c1)c(C1(CNC(C)=O)CCCC1)cn2C ) is 6.83

# pKi (compound: CCC(=O)NCC(C)c1cn(C)c2ccc(OC)cc12 (stereo unspecified) ) is 8.31

# pKi (compound: CC(=O)NCC1(c2cn(C)c3ccccc23)CCC1 ) is 5.66

# pKi (compound: COc1ccc2c(c1)c(C1(CNC(=O)C3CC3)CCC1)cn2C ) is 6.51

# pKi (compound: CCC(=O)NCC1(c2cn(C)c3ccccc23)CCC1 ) is 5.82

# pKi (compound: COc1ccc2c(c1)c(C1(CNC(C)=O)CCC1)cn2C ) is 6.32

---

# tested-system: Melatonin receptor type 1A (Homo sapiens)
# protocol-details: Displacement of 2-[125I]iodomelatonin from human recombinant MT1 receptor expressed in NIH3T3 cells
observation-type: pKi
Just so you know, pKi here is -log10 of the concentration in molar units; reply with that number alone.

Below are worked cases with known answers.
{"structure-smiles": "COc1ccc2[nH]cc(C3(CNC(=O)C4CCC4)CCC3)c2c1", "pKi": 6.31}
{"structure-smiles": "CCCC(=O)NCC1(c2c[nH]c3ccc(OC)cc23)CCC1", "pKi": 6.94}

# pKi (compound: COc1ccc2c(c1)c(C(C)(C)CNC(C)=O)cn2C ) is 7.94

# pKi (compound: CCCC(=O)NCC1(c2cn(C)c3ccc(OC)cc23)CCCC1 ) is 6.23

---

# tested-system: Melatonin receptor type 1B (Homo sapiens)
# protocol-details: Displacement of 2-[125I]iodomelatonin from human recombinant MT2 receptor expressed in NIH3T3 cells
# Format: cell-based
The following ranges of Ki define the classes used here: lower level: < 3 nM; middle level: ≥ 3 nM and < 90 nM; upper level: ≥ 90 nM

Use the examples below as a reference point.
{"structure-smiles": "COc1ccc2[nH]cc(C(C)(C)CNC(C)=O)c2c1", "tested-system": "Melatonin receptor type 1B (Homo sapiens)", "answer-label": "lower level"}
{"structure-smiles": "COc1ccc2c(c1)c(C(C)(C)CNC(=O)C1CCC1)cn2C", "tested-system": "Melatonin receptor type 1B (Homo sapiens)", "answer-label": "middle level"}
{"structure-smiles": "CCC(=O)NCC(C)(C)c1cn(C)c2ccc(OC)cc12", "tested-system": "Melatonin receptor type 1B (Homo sapiens)", "answer-label": "lower level"}
{"structure-smiles": "CCC(=O)NCC1(c2cn(C)c3ccc(OC)cc23)CCCC1", "tested-system": "Melatonin receptor type 1B (Homo sapiens)", "answer-label": "upper level"}
{"structure-smiles": "COc1ccc2c(c1)c(C1(CNC(=O)C3CC3)CCC1)cn2C", "tested-system": "Melatonin receptor type 1B (Homo sapiens)", "answer-label": "upper level"}

Exercise: Which category does the recorded Ki put CCCC(=O)NCC1(c2c[nH]c3ccc(OC)cc23)CCC1 in?
Key: middle level

Exercise: Which category does the recorded Ki put COc1ccc2[nH]cc(C3(CNC(C)=O)CCC3)c2c1 in?
Key: middle level

Exercise: Which category does the recorded Ki put COc1ccc2c(c1)c(C(C)(C)CNC(C)=O)cn2C in?
Key: lower level

Exercise: Which category does the recorded Ki put COc1ccc2c(c1)c(C1(CNC(=O)C3CCC3)CCCC1)cn2C in?
Key: upper level

Exercise: Which category does the recorded Ki put COc1ccc2c(c1)c(C1(CNC(C)=O)CCCC1)cn2C in?
Key: middle level

Data origin: ChEMBL document CHEMBL1148634
